Property: MFI; scope: individual binders
target: human DLL3 protein expressed on CHO-K1 recombinant cells (human DLL3 extracellular segment fused to EpCAM transmembrane and intracellular regions) (human) (UniProt Q9NYJ7); test: FACS, CHO-K1 hDLL3 cells, 0.032 nM antibody
Sequence (Q9NYJ7 other isoform, or with tags, fused parts or gaps limits assumed): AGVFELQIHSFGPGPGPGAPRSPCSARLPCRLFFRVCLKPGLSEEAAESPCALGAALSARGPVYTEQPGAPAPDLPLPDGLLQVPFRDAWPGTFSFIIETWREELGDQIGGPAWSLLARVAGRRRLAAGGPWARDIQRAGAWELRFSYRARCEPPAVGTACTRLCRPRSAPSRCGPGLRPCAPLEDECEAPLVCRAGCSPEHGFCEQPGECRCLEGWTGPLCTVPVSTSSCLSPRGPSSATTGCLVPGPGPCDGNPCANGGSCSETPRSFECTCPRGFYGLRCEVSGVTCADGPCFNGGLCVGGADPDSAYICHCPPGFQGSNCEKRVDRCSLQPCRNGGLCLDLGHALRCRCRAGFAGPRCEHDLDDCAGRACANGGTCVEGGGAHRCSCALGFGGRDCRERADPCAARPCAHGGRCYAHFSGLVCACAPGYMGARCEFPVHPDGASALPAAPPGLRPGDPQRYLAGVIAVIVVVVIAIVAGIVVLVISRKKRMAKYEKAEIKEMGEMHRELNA
// note: answer is a bare numeric in MFI

Past entries and their recorded results:
binder | MFI / MFI
Hab013VL2VH2a-hFc (scFv, part only; not given: scFv linker and human IgG1 Fc, V domains shown, not shown: another chain or arm of the molecule; a dimerising Fc or GST; small tags and cut ends) VL: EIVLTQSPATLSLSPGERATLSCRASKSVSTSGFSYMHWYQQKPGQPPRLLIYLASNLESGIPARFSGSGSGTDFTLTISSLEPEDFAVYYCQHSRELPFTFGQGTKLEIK VH: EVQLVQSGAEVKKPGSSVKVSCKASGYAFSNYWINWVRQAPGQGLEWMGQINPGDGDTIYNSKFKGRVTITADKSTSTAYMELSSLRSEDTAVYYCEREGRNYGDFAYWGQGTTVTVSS | 789
Hab006VL4VH2-hFc (scFv, part only; not given: scFv linker and human IgG1 Fc, V domains shown, not shown: another chain or arm of the molecule; a dimerising Fc or GST; small tags and cut ends) VL: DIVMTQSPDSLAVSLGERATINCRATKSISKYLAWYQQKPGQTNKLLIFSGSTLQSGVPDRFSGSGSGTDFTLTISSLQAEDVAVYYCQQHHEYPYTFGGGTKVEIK VH: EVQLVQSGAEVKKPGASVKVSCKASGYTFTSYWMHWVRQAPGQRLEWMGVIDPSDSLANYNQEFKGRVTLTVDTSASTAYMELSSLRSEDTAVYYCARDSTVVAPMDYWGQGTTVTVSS | 1340
Hab015VL4VH1a-hFc (scFv, part only; not given: scFv linker and human IgG1 Fc, V domains shown, not shown: another chain or arm of the molecule; a dimerising Fc or GST; small tags and cut ends) VL: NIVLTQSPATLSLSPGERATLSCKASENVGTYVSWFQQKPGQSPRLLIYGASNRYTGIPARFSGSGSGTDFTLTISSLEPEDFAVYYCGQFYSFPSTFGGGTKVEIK VH: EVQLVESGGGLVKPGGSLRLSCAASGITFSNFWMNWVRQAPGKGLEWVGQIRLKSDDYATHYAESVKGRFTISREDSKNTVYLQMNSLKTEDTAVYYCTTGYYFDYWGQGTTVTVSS | 294
Hab009VL1aVH1-hFc (scFv, part only; not given: scFv linker and human IgG1 Fc, V domains shown, not shown: another chain or arm of the molecule; a dimerising Fc or GST; small tags and cut ends) VL: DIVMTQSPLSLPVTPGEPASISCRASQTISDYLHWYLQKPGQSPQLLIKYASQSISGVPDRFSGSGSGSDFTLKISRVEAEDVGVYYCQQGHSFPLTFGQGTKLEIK VH: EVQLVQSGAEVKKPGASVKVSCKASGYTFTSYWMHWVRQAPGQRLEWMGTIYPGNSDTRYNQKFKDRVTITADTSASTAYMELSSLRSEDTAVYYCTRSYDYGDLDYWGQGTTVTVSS | 1540

Read the next record carefully.
// recorded MFI for Hab015VL5VH1b-hFc (scFv, part only; not given: VL-VH linker and human IgG1 Fc, V domains shown, not shown: another chain or arm of the molecule; a dimerising Fc or GST; small tags and cut ends) VL: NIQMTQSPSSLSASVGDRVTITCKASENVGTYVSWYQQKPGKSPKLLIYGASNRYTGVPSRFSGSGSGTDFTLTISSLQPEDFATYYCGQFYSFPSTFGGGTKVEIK VH: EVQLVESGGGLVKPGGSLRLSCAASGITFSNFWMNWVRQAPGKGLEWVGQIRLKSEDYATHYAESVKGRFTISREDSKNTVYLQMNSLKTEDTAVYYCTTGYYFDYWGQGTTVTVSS : 341
